molecular target: Fibroblast growth factor receptor 3 (Mus musculus, UniProt Q61851); assay: Inhibition of FGFR3 phosphorylation in mouse BaF3 cells incubated for 2 hrs
Sequence (Q61851 whole entry): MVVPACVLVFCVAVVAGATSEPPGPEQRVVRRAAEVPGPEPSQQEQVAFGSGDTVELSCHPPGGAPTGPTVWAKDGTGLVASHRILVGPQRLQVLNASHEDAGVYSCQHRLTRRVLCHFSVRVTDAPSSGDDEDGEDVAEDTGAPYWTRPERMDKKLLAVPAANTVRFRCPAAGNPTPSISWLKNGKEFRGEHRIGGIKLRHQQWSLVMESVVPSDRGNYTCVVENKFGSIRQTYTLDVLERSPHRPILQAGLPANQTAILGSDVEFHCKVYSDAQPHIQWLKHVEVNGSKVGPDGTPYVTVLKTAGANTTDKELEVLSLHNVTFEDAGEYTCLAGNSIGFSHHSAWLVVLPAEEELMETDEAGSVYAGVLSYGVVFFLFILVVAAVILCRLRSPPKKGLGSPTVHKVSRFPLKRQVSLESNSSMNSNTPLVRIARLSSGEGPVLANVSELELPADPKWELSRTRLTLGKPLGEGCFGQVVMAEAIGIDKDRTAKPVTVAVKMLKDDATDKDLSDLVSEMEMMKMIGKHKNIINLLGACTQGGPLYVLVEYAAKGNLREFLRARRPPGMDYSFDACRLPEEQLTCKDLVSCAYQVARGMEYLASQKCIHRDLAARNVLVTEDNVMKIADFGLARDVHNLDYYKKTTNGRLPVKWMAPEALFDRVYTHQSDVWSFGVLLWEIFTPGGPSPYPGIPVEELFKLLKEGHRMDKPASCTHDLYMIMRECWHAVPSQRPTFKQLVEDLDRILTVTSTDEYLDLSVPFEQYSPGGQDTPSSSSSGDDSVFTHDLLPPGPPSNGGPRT
endpoint-name: IC50 (µM)
Respond with the bare value in µM.

Entry CN1C[C@@H]2CC[C@H](C1=O)N2c1ncc2[nH]nc(-c3cnn(C4CCC4)c3)c2n1 , IC50 reported as 0.016

###

molecular target: Fibroblast growth factor receptor 2 (Homo sapiens, UniProt P21802); assay: Inhibition of recombinant human FGFR2 (400 to 821 residues) using biotin-EQEDEPEGDYFEWLE-amide as substrate preincubated for 5 to 10 mins followed by substrate addition and measured after 1 hr in presence of ATP by HTRF assay
Sequence (P21802 whole entry, the tested form may be a part): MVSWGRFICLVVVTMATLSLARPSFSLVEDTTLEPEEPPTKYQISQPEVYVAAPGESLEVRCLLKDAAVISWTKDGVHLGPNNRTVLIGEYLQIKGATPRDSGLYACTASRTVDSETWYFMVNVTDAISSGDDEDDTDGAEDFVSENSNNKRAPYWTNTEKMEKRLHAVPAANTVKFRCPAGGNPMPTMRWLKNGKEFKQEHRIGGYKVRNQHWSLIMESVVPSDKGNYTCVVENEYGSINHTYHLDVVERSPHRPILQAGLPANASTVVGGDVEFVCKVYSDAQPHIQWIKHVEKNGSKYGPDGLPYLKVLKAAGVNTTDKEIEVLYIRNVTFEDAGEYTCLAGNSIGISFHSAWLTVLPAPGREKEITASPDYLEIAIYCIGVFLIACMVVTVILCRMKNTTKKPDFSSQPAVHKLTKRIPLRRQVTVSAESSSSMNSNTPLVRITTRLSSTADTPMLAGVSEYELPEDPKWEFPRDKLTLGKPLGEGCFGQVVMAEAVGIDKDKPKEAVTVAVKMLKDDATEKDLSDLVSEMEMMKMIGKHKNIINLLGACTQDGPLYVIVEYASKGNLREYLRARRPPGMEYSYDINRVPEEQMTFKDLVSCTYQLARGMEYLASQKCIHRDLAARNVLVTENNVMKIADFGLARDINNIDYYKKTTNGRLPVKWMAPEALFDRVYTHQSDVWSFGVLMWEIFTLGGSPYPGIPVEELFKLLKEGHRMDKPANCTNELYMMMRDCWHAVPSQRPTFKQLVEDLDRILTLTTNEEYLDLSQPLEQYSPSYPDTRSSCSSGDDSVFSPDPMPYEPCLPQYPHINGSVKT
endpoint-name: IC50
Enter the number, and then the unit.

For this molecule ( CN1C[C@@H]2CC[C@H](C1=O)N2c1ncc2[nH]nc(-c3cnn(C4CCC4)c3)c2n1 ), measured IC50 is 1.8 nM

###

experiment: Permeability in human Caco-2 cells incubated for 120 mins by LC-MS/MS analysis; type: ADME, cell-based; settings: read-out: permeability
endpoint-name: Papp at 2 h (×10⁻⁶ cm/s)
Write the answer as a number in ×10⁻⁶ cm/s, unit excluded.

Papp at 2 h in this record for CN1C[C@@H]2CC[C@H](C1=O)N2c1ncc2[nH]nc(-c3cnn(C4CCC4)c3)c2n1 : 4

###

target: Activin receptor type-1 (Homo sapiens); assay: Inhibition of recombinant human ALK2 (147 to end residues) expressed in Sf9 infected baculovirus expression system using TRF0130 as substrate incubated for 3 hrs in presence of […]
Sequence (Q04771 whole entry): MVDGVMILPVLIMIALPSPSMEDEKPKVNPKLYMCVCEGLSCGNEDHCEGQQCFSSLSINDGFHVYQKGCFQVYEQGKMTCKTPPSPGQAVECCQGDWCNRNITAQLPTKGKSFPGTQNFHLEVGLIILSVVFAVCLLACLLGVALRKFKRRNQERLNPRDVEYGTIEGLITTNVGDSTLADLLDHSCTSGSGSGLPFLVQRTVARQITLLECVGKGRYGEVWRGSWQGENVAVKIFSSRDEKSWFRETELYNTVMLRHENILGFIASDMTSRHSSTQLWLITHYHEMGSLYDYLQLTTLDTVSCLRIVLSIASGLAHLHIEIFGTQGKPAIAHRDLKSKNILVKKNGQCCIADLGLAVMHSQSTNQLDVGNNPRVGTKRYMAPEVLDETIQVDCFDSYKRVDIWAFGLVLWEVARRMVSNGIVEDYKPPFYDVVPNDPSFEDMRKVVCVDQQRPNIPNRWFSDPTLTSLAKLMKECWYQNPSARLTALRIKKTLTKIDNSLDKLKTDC
endpoint-name: IC50
Kindly report the value followed by its unit.

Summary: CN1C[C@@H]2CC[C@H](C1=O)N2c1ncc2[nH]nc(-c3cnn(C4CCC4)c3)c2n1 , Activin receptor type-1 (Homo sapiens), IC50 = 477 nM

###

experiment: Half life in cynomolgus monkey at 3 mg/kg, po or 1 mg/kg, iv measured up to 24 hrs; type: ADME, organism-based, Macaca fascicularis; conditions: in vivo
endpoint-name: half-life
Please state the value followed by its unit.

half-life reading for CN1C[C@@H]2CC[C@H](C1=O)N2c1ncc2[nH]nc(-c3cnn(C4CCC4)c3)c2n1 : 3.2 h

###

experiment: Protein binding in human plasma assessed as free fraction after 2 hrs by equilibrium dialysis method; assay type: ADME, cell-free
endpoint-name: fraction unbound at 2 h
Lab note: write the figure by itself, no unit.

Measured fraction unbound at 2 h of CN1C[C@@H]2CC[C@H](C1=O)N2c1ncc2[nH]nc(-c3cnn(C4CCC4)c3)c2n1 : 0.11

###

biological target: UniProt P21802; test: Inhibition of FGFR2 in human KATOIII cells incubated for 1 hr; type: cell-based, KATO III stomach cancer cell line
endpoint-name: pIC50
Friendly reminder that pIC50 comes from taking -log10 of the concentration in mol/L.

Item: CN1C[C@@H]2CC[C@H](C1=O)N2c1ncc2[nH]nc(-c3cnn(C4CCC4)c3)c2n1 | pIC50: 7.62

###

experiment: AUCinfinity in cynomolgus monkey at 3 mg/kg, po measured up to 24 hrs; format: ADME, organism-based, Macaca fascicularis; parameters: time < 24 hrs, dose 3 mg/kg, route po; details: in vivo
endpoint-name: AUC(0-inf) (µM·h)
Reply with just the number (in µM·h).

Sure, the documented AUC(0-inf) for CN1C[C@@H]2CC[C@H](C1=O)N2c1ncc2[nH]nc(-c3cnn(C4CCC4)c3)c2n1 is 2.21

###

assay: Oral bioavailability in cynomolgus monkey at 3 mg/kg measured up to 24 hrs; type: ADME, organism-based, Macaca fascicularis; conditions: in vivo
endpoint-name: bioavailability (%)
Write the value in % as a bare number.

// CN1C[C@@H]2CC[C@H](C1=O)N2c1ncc2[nH]nc(-c3cnn(C4CCC4)c3)c2n1 : bioavailability value = 20

###

assay: Solubility of compound in stimulated gastric fluid; type: ADME; conditions: simulated gastric fluid
endpoint-name: solubility

solubility reported for this molecule CN1C[C@@H]2CC[C@H](C1=O)N2c1ncc2[nH]nc(-c3cnn(C4CCC4)c3)c2n1 : > 400 µg/mL

###

molecular target: UniProt Q12809; assay: Inhibition of human ERG at 10 uM relative to control; type: toxicity
endpoint-name: inhibition at 10 µM

Record CN1C[C@@H]2CC[C@H](C1=O)N2c1ncc2[nH]nc(-c3cnn(C4CCC4)c3)c2n1 . Reported inhibition at 10 µM: < 10%

###

target: Cytochrome P450 3A4 (Homo sapiens)
Sequence (P08684 whole entry): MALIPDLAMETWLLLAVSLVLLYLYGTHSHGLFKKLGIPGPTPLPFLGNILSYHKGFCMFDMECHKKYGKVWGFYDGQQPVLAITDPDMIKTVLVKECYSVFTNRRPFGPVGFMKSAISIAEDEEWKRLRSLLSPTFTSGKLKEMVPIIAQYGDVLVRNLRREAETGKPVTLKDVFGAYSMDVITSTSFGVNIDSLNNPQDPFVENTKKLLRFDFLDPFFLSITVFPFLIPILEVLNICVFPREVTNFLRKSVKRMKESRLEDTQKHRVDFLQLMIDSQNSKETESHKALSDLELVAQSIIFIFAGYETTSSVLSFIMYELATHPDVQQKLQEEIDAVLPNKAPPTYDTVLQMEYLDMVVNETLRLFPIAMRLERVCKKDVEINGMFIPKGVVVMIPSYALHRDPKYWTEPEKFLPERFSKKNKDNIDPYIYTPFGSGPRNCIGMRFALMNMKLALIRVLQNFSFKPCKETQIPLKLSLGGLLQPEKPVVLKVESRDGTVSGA
endpoint-name: IC50

The recorded IC50 for entry CN1C[C@@H]2CC[C@H](C1=O)N2c1ncc2[nH]nc(-c3cnn(C4CCC4)c3)c2n1 equals > 10 µM

###

assay: Drug concentration in NSG mouse plasma at 30 mg/kg, po measured after 2 hrs; format: ADME, organism-based
endpoint-name: concentration at 2 h (nM)
The reply should be a number in nM, with the unit left off.

# compound CN1C[C@@H]2CC[C@H](C1=O)N2c1ncc2[nH]nc(-c3cnn(C4CCC4)c3)c2n1 ; its concentration at 2 h = 760

###

target: Fibroblast growth factor receptor 4 (Homo sapiens); assay: Inhibition of recombinant human FGFR4 (460 to 802 residues) using biotin-EQEDEPEGDYFEWLE-amide as substrate preincubated for 5 to 10 mins followed by substrate addition and measured after 1 hr in presence of ATP by HTRF assay
Sequence (P22455 whole entry, the tested form may be a part): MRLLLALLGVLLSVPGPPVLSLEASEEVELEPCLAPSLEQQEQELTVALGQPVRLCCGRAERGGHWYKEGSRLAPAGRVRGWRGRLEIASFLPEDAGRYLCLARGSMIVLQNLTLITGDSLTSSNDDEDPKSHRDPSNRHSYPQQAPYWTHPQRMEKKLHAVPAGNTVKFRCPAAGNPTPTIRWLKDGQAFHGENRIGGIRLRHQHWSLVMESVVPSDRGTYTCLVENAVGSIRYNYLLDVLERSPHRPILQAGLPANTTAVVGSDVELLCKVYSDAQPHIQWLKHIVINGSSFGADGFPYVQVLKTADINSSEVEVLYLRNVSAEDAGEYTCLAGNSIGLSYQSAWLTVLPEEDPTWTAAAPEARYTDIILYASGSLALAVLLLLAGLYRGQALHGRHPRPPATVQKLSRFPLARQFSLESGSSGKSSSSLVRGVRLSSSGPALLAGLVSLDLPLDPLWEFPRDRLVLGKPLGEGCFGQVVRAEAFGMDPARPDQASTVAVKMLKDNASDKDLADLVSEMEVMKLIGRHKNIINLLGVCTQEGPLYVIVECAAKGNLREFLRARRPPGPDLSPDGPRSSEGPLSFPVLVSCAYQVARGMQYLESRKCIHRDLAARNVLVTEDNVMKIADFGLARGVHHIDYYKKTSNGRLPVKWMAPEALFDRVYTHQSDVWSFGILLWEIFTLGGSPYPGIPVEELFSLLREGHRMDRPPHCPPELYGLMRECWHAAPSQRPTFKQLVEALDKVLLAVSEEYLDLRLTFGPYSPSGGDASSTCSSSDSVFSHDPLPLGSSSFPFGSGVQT
endpoint-name: IC50 (nM)
Write down the numeric answer in nM and omit the unit.

The molecule listed as CN1C[C@@H]2CC[C@H](C1=O)N2c1ncc2[nH]nc(-c3cnn(C4CCC4)c3)c2n1 shows IC50 equal to 157

###

Biological target: Cytochrome P450 2B6 (Homo sapiens)
Sequence (P20813 whole entry): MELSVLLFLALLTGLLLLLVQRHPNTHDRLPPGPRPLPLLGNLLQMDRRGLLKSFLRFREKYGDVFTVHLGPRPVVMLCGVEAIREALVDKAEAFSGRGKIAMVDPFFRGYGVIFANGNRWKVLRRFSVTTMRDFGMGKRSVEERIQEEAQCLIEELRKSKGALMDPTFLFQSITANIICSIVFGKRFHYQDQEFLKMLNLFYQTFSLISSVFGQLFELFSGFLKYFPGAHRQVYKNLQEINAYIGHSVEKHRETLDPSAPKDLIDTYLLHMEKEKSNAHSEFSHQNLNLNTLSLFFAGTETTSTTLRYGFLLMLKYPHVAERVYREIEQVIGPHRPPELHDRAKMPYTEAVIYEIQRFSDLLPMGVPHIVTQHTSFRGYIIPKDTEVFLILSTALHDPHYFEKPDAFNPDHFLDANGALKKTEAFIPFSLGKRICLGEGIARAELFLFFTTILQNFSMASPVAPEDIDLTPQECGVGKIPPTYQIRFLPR
Assay: Inhibition of CYP2B6 (unknown origin)
Format: ADME
endpoint-name: IC50

# IC50 measured on Cytochrome P450 2B6 (Homo sapiens) for item CN1C[C@@H]2CC[C@H](C1=O)N2c1ncc2[nH]nc(-c3cnn(C4CCC4)c3)c2n1 = > 10 µM

###

test: Metabolic stability in human liver microsomes assessed as intrinsic clearance at 1 uM preincubated for 2 mins followed by NADPH addition and measured upto 30 mins by LC-MS/MS analysis; format: ADME, Microsome; details: time < 32 min, read-out: CLH (converted)
endpoint-name: CLint scaled at 1 µM
Entry format: amount then unit.

The compound identified as CN1C[C@@H]2CC[C@H](C1=O)N2c1ncc2[nH]nc(-c3cnn(C4CCC4)c3)c2n1 registered its CLint scaled at 1 µM at 16.7 mL/min/kg

###

experiment: Cmax in Sprague-Dawley rat at 3 mg/kg, po measured up to 24 hrs; type: ADME, organism-based; set-up: dose 3 mg/kg, time < 24 hrs, route po; details: in vivo
endpoint-name: Cmax (µM)
Reply with just the number (in µM).

The compound CN1C[C@@H]2CC[C@H](C1=O)N2c1ncc2[nH]nc(-c3cnn(C4CCC4)c3)c2n1 showed Cmax equal to 5.55

###

experiment: AUCinfinity in Sprague-Dawley rat at 3 mg/kg, po measured up to 24 hrs; assay type: ADME, organism-based; parameters: dose 3 mg/kg, time < 24 hrs, route po; conditions: in vivo
endpoint-name: AUC(0-inf) (µM·h)
Express the result in µM·h but write the number alone.

Data point: CN1C[C@@H]2CC[C@H](C1=O)N2c1ncc2[nH]nc(-c3cnn(C4CCC4)c3)c2n1 ; AUC(0-inf) = 5.82

###

assay: Oral bioavailability in Sprague-Dawley rat at 3 mg/kg measured up to 24 hrs; format: ADME, organism-based; settings: in vivo
endpoint-name: bioavailability (%)
Only the number, expressed in %, is required.

molecule CN1C[C@@H]2CC[C@H](C1=O)N2c1ncc2[nH]nc(-c3cnn(C4CCC4)c3)c2n1 , bioavailability observed: 100

###

target: Vascular endothelial growth factor receptor 2 (Homo sapiens, UniProt P35968)
Sequence (P35968 whole entry): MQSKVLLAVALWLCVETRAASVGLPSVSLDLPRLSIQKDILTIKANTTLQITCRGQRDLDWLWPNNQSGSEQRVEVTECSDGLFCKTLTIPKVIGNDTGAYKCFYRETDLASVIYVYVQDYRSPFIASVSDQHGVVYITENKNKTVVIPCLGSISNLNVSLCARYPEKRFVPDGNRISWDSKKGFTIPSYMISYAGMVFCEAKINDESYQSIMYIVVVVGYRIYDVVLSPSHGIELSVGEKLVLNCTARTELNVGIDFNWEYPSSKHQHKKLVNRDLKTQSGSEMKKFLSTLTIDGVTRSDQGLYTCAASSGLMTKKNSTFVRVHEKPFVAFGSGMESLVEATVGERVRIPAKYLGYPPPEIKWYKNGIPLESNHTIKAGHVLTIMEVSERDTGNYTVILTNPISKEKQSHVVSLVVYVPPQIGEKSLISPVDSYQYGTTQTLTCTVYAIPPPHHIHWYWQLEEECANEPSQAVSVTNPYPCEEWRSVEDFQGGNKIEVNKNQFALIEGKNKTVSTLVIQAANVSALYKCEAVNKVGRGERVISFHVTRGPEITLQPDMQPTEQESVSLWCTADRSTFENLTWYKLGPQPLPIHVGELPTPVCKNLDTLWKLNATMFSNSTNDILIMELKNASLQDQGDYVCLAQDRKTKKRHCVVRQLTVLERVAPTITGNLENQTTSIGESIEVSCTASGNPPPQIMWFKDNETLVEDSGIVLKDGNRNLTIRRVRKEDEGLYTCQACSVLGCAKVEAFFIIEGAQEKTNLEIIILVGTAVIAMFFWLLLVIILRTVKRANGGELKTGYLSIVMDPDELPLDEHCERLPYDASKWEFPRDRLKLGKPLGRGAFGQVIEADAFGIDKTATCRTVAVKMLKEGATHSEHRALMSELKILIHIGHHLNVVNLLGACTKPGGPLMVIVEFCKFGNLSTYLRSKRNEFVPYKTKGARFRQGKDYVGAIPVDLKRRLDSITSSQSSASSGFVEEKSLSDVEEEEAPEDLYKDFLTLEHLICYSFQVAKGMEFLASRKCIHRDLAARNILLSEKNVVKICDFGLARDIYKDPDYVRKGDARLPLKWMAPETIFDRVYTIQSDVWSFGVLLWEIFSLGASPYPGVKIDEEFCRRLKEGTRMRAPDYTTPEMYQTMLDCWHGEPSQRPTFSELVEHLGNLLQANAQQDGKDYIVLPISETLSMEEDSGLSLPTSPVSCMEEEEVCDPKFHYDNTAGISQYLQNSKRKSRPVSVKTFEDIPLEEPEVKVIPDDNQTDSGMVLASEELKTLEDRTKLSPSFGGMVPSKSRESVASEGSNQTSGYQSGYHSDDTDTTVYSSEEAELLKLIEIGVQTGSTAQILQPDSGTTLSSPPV
endpoint-name: IC50 (nM)
Express it in nM; write the number only.

The value of IC50 recorded for CN1C[C@@H]2CC[C@H](C1=O)N2c1ncc2[nH]nc(-c3cnn(C4CCC4)c3)c2n1 when tested on Vascular endothelial growth factor receptor 2 (Homo sapiens, UniProt P35968) reads 184
